# procedure_details: Plasma clearance in rats (1/2 mg/kg i.v./p.o.)
# Type: ADME, organism-based
# test_conditions: rat, 1 mg/kg i.v.
result_type: clearance (mL/min/kg)
Write the value in mL/min/kg as a bare number.

Answered cases to consult:
COC(=O)Cc1ccc(CNC(=O)[C@@H]2CSCN2C(=O)CC(N)Cc2ccccc2F)cc1.O=C(O)C(F)(F)F (some centres not stated): 140
CC(C)[C@@H](Oc1ccc(CNC(=O)[C@@H]2CCCN2C(=O)CC(N)Cc2c(F)c(F)c(F)c(F)c2F)cc1)C(=O)O.O=C(O)C(F)(F)F (some centres not stated): 47
CC(C)[C@@H](Oc1ccc(CNC(=O)[C@@H]2CCCN2C(=O)CC(N)Cc2cc(F)ccc2F)cc1)C(=O)O.O=C(O)C(F)(F)F (some centres not stated): 150
NC(CC(=O)N1CSC[C@H]1C(=O)NCc1ccc(CC(=O)O)cc1)Cc1ccccc1F.O=C(O)C(F)(F)F (some centres not stated): 25
NC(CC(=O)N1CCC[C@H]1C(=O)NCc1ccc(C(F)(F)F)cc1)Cc1ccccc1F.O=C(O)C(F)(F)F (some centres not stated): 78

Input: Supply measured clearance of NC(CC(=O)N1CCC[C@H]1C(=O)NCc1ccc(C(=O)O)cc1)Cc1ccc(F)c(F)c1.O=C(O)C(F)(F)F (some centres not stated) in your reply.
Output: 47

Input: Answer with the recorded clearance of NC(CC(=O)N1CCC[C@H]1C(=O)NCCCCc1nn[nH]n1)Cc1ccccc1F.O=C(O)C(F)(F)F (some centres not stated) only.
Output: 54

Source of measurements: ChEMBL document CHEMBL1137046
